Tested on: clinical strains of Acinetobacter baumannii
Experiment: MIC, clinical strains of Acinetobacter baumannii
Format: cell-based
Conditions: Acinetobacter baumannii clinical strain 3; microdilution, Muller Hinton broth-cation adjusted, 0.02% BSA, 0.2% acetic acid
Experimental: Minimum inhibition concentrations (MICs) were determined against Escherichia coli (ATCC 25922), Staphylococcus aureus (ATCC 25923), Klebsiella pneumoniae (ATCC 10031) and Pseudomonas aeruginosa (ATCC 27853). […] The susceptibility of these microorganisms to Chain peptides were determined using micro broth dilution assay. […] Concentrations of Chain peptides and reference antibiotics ranged from 0.125 to 128 μg/ml and the MICs were recorded as the lowest concentration with no visual growth of bacteria. […]
Where a SMILES comes first, the peptide text is derived from it. [ ]: non-standard residue; d: D form.
Listing of recorded Minimum inhibitory concentration by entry.
MEASURED_QUANTITY: Minimum inhibitory concentration

COMPOUND	MEASURED_RESULT
CC[C@@H](C)[C@@H](NC(=O)[C@@H](CC(C)C)NC(=O)[C@@H](CCCNC(=N)N)NC(=O)[C@H](N)CCCNC(=N)N)C(=O)N[C@H](Cc1c[nH]c2ccccc12)C(=O)N[C@H](CCCNC(=N)N)C(=O)N[C@H](CCCNC(=N)N)C(=O)N[C@H](Cc1ccccc1)C(=O)N[C@H](CCCCN)C(=O)N[C@H](Cc1c[nH]c2ccccc12)C(=O)N[C@H](CC(C)C)C(=O)N[C@H](CCCNC(=N)N)C(=O)O [Chain204D] (H-[dR][dR][dL][dI][dW][dR][dR][dF][dK][dW][dL][dR]-OH)	4
CC[C@@H](C)[C@@H](NC(=O)[C@@H](Cc1c[nH]c2ccccc12)NC(=O)[C@H](N)CCCCN)C(=O)N[C@@H](C(=O)N[C@H](Cc1c[nH]c2ccccc12)C(=O)N[C@H](CCCNC(=N)N)C(=O)N[C@H](Cc1c[nH]c2ccccc12)C(=O)N[C@H](CCCNC(=N)N)C(=O)N[C@H](Cc1ccccc1)C(=O)N[C@H](CCCCN)C(=O)N[C@H](CCCNC(=N)N)C(=O)O)C(C)C [Chain201D] (H-[dK][dW][dI][dV][dW][dR][dW][dR][dF][dK][dR]-OH)	4
CC(C)C[C@@H](NC(=O)[C@H](N)CCCNC(=N)N)C(=O)N[C@H](CCCCN)C(=O)N[C@H](Cc1c[nH]c2ccccc12)C(=O)N[C@H](Cc1ccccc1)C(=O)N[C@H](CC(C)C)C(=O)N[C@H](CC(C)C)C(=O)N[C@H](Cc1ccccc1)C(=O)N[C@H](CCCNC(=N)N)C(=O)N[C@H](CCCCN)C(=O)N[C@H](CCCNC(=N)N)C(=O)O [Chain308D] (H-[dR][dL][dK][dW][dF][dL][dL][dF][dR][dK][dR]-OH)	4
CC(C)C[C@@H](NC(=O)[C@H](N)CCCNC(=N)N)C(=O)N[C@H](CCCCN)C(=O)N[C@H](CCCNC(=N)N)C(=O)N[C@H](Cc1c[nH]c2ccccc12)C(=O)N[C@H](CCCNC(=N)N)C(=O)N[C@H](CC(C)C)C(=O)N[C@H](Cc1ccccc1)C(=O)N[C@H](CCCNC(=N)N)C(=O)N[C@H](CCCCN)C(=O)N[C@H](CCCNC(=N)N)C(=O)O [Chain306D] (H-[dR][dL][dK][dR][dW][dR][dL][dF][dR][dK][dR]-OH)	16
